Ref: paper PMC6993587

- Measured on: HLA-DR DRB1*09:01 (Homo sapiens, UniProt P01903+P01911, A100R/A103E/D57H/D86V/F55Y/F60I/F76Y/I96F/K127E/L162R/M171V/P40D/Q125H/Q99R/R33Q/R42F/S133A/S66N/T210M/V115G/W38K/Y107V/Y59G/Y89S)
- Assay notes: In vitro HLA binding assay with purified HLA-DR molecules
Ends that are not written are not given here.
Kindly state IC50 for each of the entries shown.
Unit nM implied. Number only.

Reported IC50 ( LGVVSTVLLGGVGLV [EXP1-P18] ) = 491

Reported IC50 ( KLATSVLAGLLGVVS [EXP1-P16] ) = 1360

Reported IC50 ( VLAGLLGVVSTVLLGGV [EXP1-P17] ) = 12

Reported IC50 ( RKSKYKLATSVLAGLL [EXP1-P15] ) = 3.9

Reported IC50 ( VEVNKRKSKYKLATS [EXP1-P14] ) = 77

Reported IC50 ( SVFFLALFFIIFNKE [EXP1-P02] ) = 648

###

- Measured on: HLA-DR DRB1*11:01 (Homo sapiens, UniProt P01903+P01911, A100R/A169T/A87E/I96F/K41T/L162R/M171V/P40S/Q125H/Q178H/Q39Y/Q99D/R42S/S66Y/T262R/V115G/W38E)
- Sequence (P01903 26-254 limits assumed, other chains not shown): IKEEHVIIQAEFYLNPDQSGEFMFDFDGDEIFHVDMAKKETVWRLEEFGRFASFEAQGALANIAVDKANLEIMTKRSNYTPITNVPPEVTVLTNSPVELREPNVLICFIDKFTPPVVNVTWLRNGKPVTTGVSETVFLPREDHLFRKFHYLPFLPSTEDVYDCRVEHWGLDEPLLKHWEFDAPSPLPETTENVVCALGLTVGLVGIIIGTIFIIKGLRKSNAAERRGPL
- Assay notes: In vitro HLA binding assay with purified HLA-DR molecules
- Test parameters: purified HLA-DR molecule; high affinity binding = IC50 <1,000 nM
Ends that are not written are not given here.
Measurement label: IC50 (nM)
Unit nM implied. Number only.

Reported IC50 ( KLATSVLAGLLGVVS [EXP1-P16] ) = 810

Reported IC50 ( RKSKYKLATSVLAGLL [EXP1-P15] ) = 7

Reported IC50 ( LGVVSTVLLGGVGLV [EXP1-P18] ) = 6630

Reported IC50 ( GVGLVLYNTEKGRHP [EXP1-P20] ) = 183

Reported IC50 ( NANPDADSESNGEPN [EXP1-P25] ) = 23200

Reported IC50 ( VLAGLLGVVSTVLLGGV [EXP1-P17] ) = 13700

Reported IC50 ( KEEELVEVNKRKSKY [EXP1-P13] ) = 142

###

- Measured on: HLA-DR DRB1*04:05 (Homo sapiens, UniProt P01903+P01911, A100R/A169T/D86S/F76Y/I96L/K127E/L162R/M171V/N62H/P40V/Q125Y/R42H/S133A/S149N/S66Y/V115G/V209L/W38E)
- Assay notes: In vitro HLA binding assay with purified HLA-DR molecules
- Test parameters: purified HLA-DR molecule; high affinity binding = IC50 <1,000 nM
- Experimental: In vitro binding assays with 14 of the peptides that elicited a response were performed using purified HLA-DR molecules, as previously described (Table 3) ([37]). […] To test this hypothesis, we measured the in vitro capacity of the most frequently recognized EXP1 peptides to bind to a panel of 17 of the most prevalent human HLA-DR molecules, since the majority of HLA class II restricted CD4+ T cell responses are presented by these molecules ([49], [50]). […]
pIC50: −log10 of the molar value. Ends that are not written are not given here.
Tag: true if measured pIC50 is not below 6, false if it is.

Input line: hey, is pIC50 for this one >= 6? KLATSVLAGLLGVVS [EXP1-P16]
Output line: true

Input line: hey, is pIC50 for this one >= 6? SVFFLALFFIIFNKE [EXP1-P02]
Output line: false

Input line: hey, is pIC50 for this one >= 6? NANPDADSESNGEPN [EXP1-P25]
Output line: false

Input line: hey, is pIC50 for this one >= 6? RKSKYKLATSVLAGLL [EXP1-P15]
Output line: true

Input line: hey, is pIC50 for this one >= 6? VEVNKRKSKYKLATS [EXP1-P14]
Output line: true

Input line: hey, is pIC50 for this one >= 6? GVGLVLYNTEKGRHP [EXP1-P20]
Output line: false

Input line: hey, is pIC50 for this one >= 6? EPLIDVHDLISDMIK [EXP1-P10]
Output line: false

Input line: hey, is pIC50 for this one >= 6? LGVVSTVLLGGVGLV [EXP1-P18]
Output line: false

###

- Measured on: HLA-DR DRB1*03:01 (Homo sapiens, UniProt P01903+P01911, A100K/A102G/A103R/A169T/F55Y/I96L/K41T/L162R/M171V/P40S/Q125H/Q178H/Q39Y/R42S/S66N/T106N/T262R/W38E/Y61H)
- Assay notes: In vitro HLA binding assay with purified HLA-DR molecules
- Test parameters: purified HLA-DR molecule; high affinity binding = IC50 <1,000 nM
Ends that are not written are not given here.
Measurement label: IC50 (µM)
Unit µM implied. Number only.

Reported IC50 ( SVFFLALFFIIFNKE [EXP1-P02] ) = 12.3

Reported IC50 ( KLATSVLAGLLGVVS [EXP1-P16] ) = 10.8

Reported IC50 ( RKSKYKLATSVLAGLL [EXP1-P15] ) = 5.82

Reported IC50 ( EPLIDVHDLISDMIK [EXP1-P10] ) = 6.77

Reported IC50 ( GVGLVLYNTEKGRHP [EXP1-P20] ) = 4.49

###

Kindly state IC50 for each of the entries shown.
- Measured on: HLA-DR DRB1*04:04 (Homo sapiens, UniProt P01903+P01911, A100R/A169T/F76Y/I96L/K127E/L162R/M171V/N62H/P40V/Q125Y/R42H/S133A/S149N/S66Y/V209L/W38E)
- Assay notes: In vitro HLA binding assay with purified HLA-DR molecules
- Test parameters: purified HLA-DR molecule; high affinity binding = IC50 <1,000 nM
Ends that are not written are not given here.

Reported IC50 ( RKSKYKLATSVLAGLL [EXP1-P15] ) = 48 nM

Reported IC50 ( GVGLVLYNTEKGRHP [EXP1-P20] ) = 9.1 nM

Reported IC50 ( EPLIDVHDLISDMIK [EXP1-P10] ) = 1110 nM

Reported IC50 ( KLATSVLAGLLGVVS [EXP1-P16] ) = 454 nM

Reported IC50 ( SVFFLALFFIIFNKE [EXP1-P02] ) = 2610 nM

Reported IC50 ( NANPDADSESNGEPN [EXP1-P25] ) = 12500 nM

Reported IC50 ( VLAGLLGVVSTVLLGGV [EXP1-P17] ) = 47 nM

Reported IC50 ( LGVVSTVLLGGVGLV [EXP1-P18] ) = 806 nM

###

Kindly state IC50 for each of the entries shown.
- Measured on: HLA-DR DRB1*01:01 (Homo sapiens, UniProt P01903+P01911, A100R/D57E/F55L/F60I/F76Y/I96L/L162R/M171V/P40L/Q125E/R42F/V115G/Y59C)
- Assay notes: In vitro HLA binding assay with purified HLA-DR molecules
- Test parameters: purified HLA-DR molecule; high affinity binding = IC50 <1,000 nM
Ends that are not written are not given here.
Unit nM implied. Number only.

Reported IC50 ( NANPDADSESNGEPN [EXP1-P25] ) = 19600

Reported IC50 ( KLATSVLAGLLGVVS [EXP1-P16] ) = 11

Reported IC50 ( VEVNKRKSKYKLATS [EXP1-P14] ) = 2350

Reported IC50 ( RKSKYKLATSVLAGLL [EXP1-P15] ) = 1.1

Reported IC50 ( GVGLVLYNTEKGRHP [EXP1-P20] ) = 8940

Reported IC50 ( VLAGLLGVVSTVLLGGV [EXP1-P17] ) = 23

Reported IC50 ( LGVVSTVLLGGVGLV [EXP1-P18] ) = 19

Reported IC50 ( SVFFLALFFIIFNKE [EXP1-P02] ) = 11700

Reported IC50 ( EPLIDVHDLISDMIK [EXP1-P10] ) = 6020

###

- Measured on: HLA-DR DRB1*13:01 (Homo sapiens, UniProt P01903+P01911, A100E/A169T/K41T/L162R/M171V/P40S/Q125H/Q178H/Q39Y/Q99D/R42S/S66N/T262R/W38E/Y61H)
- Assay notes: In vitro HLA binding assay with purified HLA-DR molecules
- Test parameters: purified HLA-DR molecule; high affinity binding = IC50 <1,000 nM
Ends that are not written are not given here.
Measurement label: pIC50
Just the number, please; pIC50 means minus log10 of the concentration in mol/L.

Reported pIC50 ( GSGVSSKKKNKKGSG [EXP1-P07] ) = 5.70

Reported pIC50 ( GVGLVLYNTEKGRHP [EXP1-P20] ) = 6.91

Reported pIC50 ( KLATSVLAGLLGVVS [EXP1-P16] ) = 4.49

Reported pIC50 ( LGVVSTVLLGGVGLV [EXP1-P18] ) = 5.07

Reported pIC50 ( KEEELVEVNKRKSKY [EXP1-P13] ) = 5.92

Reported pIC50 ( VEVNKRKSKYKLATS [EXP1-P14] ) = 5.24

Reported pIC50 ( SVFFLALFFIIFNKE [EXP1-P02] ) = 5.19

Reported pIC50 ( VLAGLLGVVSTVLLGGV [EXP1-P17] ) = 4.85
